Below, each entry is listed alongside its reported Bmax.
Assay system: human Siglec-8 (full-length, on transfected CHO or 293 cells, or native on human eosinophils) (human, UniProt Q9NYZ4 17-499)
Sequence (Q9NYZ4 17-499): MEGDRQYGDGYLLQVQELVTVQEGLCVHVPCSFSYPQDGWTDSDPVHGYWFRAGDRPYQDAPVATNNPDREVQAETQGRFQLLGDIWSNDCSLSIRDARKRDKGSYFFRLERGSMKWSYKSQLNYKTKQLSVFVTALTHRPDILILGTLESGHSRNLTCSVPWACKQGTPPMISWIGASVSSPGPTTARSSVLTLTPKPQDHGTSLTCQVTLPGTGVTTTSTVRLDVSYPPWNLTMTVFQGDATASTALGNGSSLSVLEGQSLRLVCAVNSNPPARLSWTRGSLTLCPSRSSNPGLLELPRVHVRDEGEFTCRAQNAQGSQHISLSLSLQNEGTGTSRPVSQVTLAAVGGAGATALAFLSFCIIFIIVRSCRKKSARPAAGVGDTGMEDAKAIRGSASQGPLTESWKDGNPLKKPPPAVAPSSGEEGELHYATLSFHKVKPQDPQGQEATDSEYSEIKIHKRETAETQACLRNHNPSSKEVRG
Test description: flow cytometry on 293 cells transiently transfected with full-length human Siglec-8; A647 anti-human Fc-gamma secondary; median fluorescence, nonlinear fit; table under the graph

**Q:** Determine its reported Bmax: Siglec8 hzG2v12, monomeric VHH-hIgG1 fusion (Fc NNT) (Fc fusion, Monomeric format; not shown: non-dimerizing human IgG1 Fc variant lacking a hinge (Fc NNT)) EVQLLESGGGEVQPGGSLRLSCAASGSISIFSMYVVAWYRQAPGKEREWVAFIQRGGTANYAESAKGRFTISRDNAKNTVYLQMSSLRAEDTAVYYCNYISSDNEIGGPWGQGTLVTVKP
**A:** 1.25e+06 Median (anti-human A647)

**Q:** Determine its reported Bmax: Siglec8 hzG2v15, monomeric VHH-hIgG1 fusion (Fc NNT) (Fc fusion, Monomeric format; not shown: non-dimerizing human IgG1 Fc variant lacking a hinge (Fc NNT)) EVQLLESGGGEVQPGGSLRLSCAASGSISIFSYYVVAWYRQAPGKEREWVAFIQRGGTANYAESAKGRFTISRDNAKNTVYLQMSSLRAEDTAVYYCNYINSDNEIGGPWGQGTLVTVKP
**A:** 1.4e+06 Median (anti-human A647)
